B1: Cyclic AMP-dependent transcription factor ATF-4 (Homo sapiens), P18848 (parent)
chain: MTEMSFLSSEVLVGDLMSPFDQSGLGAEESLGLLDDYLEVAKHFKPHGFSSDKAKAGSSEWLAVDGLVSPSNNSKEDAFSGTDWMLEKMDLKEFDLDALLGIDDLETMPDDLLTTLDDTCDLFAPLVQETNKQPPQTVNPIGHLPESLTKPDQVAPFTFLQPLPLSPGVLSSTPDHSFSLELGSEVDITEGDRKPDYTAYVAMIPQCIKEEDTPSDNDSGICMSPESYLGSPQHSPSTRGSPNRSLPSPGVLCGSARPKPYDPPGEKMVAAKVKGEKLDKKLKKMEQNKTAATRYRQKKRAEQEALTGECKELEKKNEALKERADSLAKEIQYLKDLIEEVRKARGKKRVP

- Variants of: B1
- TEST CONDITIONS: with fbw1a_human BTRC
OBSERVED PROPERTY: effect of a mutation on the interaction

P258A    with no effect
T137S    with no effect
A324V    with no effect

Entry source: IntAct's records for PubMed 31515488
